- test_system: UniProt:P21554
- Sequence (P21554 whole entry): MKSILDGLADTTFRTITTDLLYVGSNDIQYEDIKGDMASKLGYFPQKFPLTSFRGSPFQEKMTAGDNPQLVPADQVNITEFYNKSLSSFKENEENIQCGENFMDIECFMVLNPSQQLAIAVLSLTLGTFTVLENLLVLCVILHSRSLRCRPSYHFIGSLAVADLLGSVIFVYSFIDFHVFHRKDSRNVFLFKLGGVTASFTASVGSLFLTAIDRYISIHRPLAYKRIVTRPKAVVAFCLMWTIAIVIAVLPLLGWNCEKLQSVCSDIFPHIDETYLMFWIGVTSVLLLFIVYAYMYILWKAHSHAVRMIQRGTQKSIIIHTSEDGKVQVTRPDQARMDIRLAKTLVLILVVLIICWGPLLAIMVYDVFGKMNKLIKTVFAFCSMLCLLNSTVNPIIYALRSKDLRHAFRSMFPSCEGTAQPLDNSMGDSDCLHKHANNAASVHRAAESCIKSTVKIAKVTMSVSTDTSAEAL
- assay_summary: bioSensAll ebBRET signaling profiling, hCB1
- Assay type: cell-based
- Set-up: host or cells: HEK293SL cells, transient PEI transfection
- recorded_conditions: read-out: Emax [95% CI], hCB1 GoB; normalized to CP-55,940
# if measured Emax < 40%: criterion met  # else: criterion not met

Examples with answers:
Cc1cc(C(=O)NC(c2ccccc2)c2ccco2)nn1-c1cccc(C(F)(F)F)c1 (stereo not drawn)	criterion not met
Cc1cc(C(=O)NC(c2ccccc2)c2ccco2)nn1-c1cccc(C#N)c1 (stereo not drawn)	criterion met
CC(=O)C(c1cccs1)N(C)C(=O)c1cc(C)n(-c2cccc(C(F)(F)F)c2)n1 (stereo not drawn)	criterion not met
COC(=O)C(NC(=O)c1cc(C)n(-c2cccc(C(F)(F)F)c2)n1)c1cccs1 (stereo not drawn)	criterion not met
Cn1nc(-c2nnc(C(C)(C)Oc3ccc(C(F)(F)F)cc3)o2)c2ccccc2c1=O	criterion not met

QUERY: Emax under 40%? Item: Cc1nn(Cc2ccc(Cl)cc2)c(C)c1C(=O)OCC1CSc2ccccc2O1 (stereo not drawn)
RESULT: criterion met

QUERY: Emax under 40%? Item: Cc1c(C(=O)OCC2CSc3ccccc3O2)cnn1Cc1ccccc1 (stereo not drawn)
RESULT: criterion met

QUERY: Emax under 40%? Item: `Cn1nc(-c2nnc(C(C)(C)Oc3ccc(Cl)cc3)o2)c2ccccc2c1=O`
RESULT: criterion met

QUERY: Emax under 40%? Item: `Cc1cc(C(=O)NC(c2ccco2)c2ccco2)nn1-c1cccc(C(F)(F)F)c1`
RESULT: criterion not met
